The reader will find reported pEC50 values listed item by item below.
Target: human κ opioid receptor (OPRK1) (Homo sapiens, UniProt P41145)
Construct: expressed in transfected cells; host or cells: CHO-K1
Sequence (P41145 whole entry): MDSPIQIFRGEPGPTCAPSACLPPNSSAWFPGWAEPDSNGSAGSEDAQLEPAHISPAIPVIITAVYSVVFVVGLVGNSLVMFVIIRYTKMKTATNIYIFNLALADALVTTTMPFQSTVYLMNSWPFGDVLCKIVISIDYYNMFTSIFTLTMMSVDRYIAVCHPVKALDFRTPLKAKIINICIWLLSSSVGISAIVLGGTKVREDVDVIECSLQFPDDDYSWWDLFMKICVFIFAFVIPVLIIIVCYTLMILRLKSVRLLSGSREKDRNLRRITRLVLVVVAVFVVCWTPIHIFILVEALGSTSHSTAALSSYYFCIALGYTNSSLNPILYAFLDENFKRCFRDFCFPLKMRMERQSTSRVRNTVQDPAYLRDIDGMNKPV
Assay: Determination of activities of κ receptor agonists: inhibition of forskolin-stimulated cAMP release (HTRF) in stably transfected CHO-K1 cells
Type: cell-based
Square brackets hold non-standard residues; d marks the D form. Peptide text beside a SMILES is read from it. * marks the point of attachment. X4 = NCCCC[C@H](NC(=O)C1(N)CCN(*)CC1)C(=O)O; iPr = CC(C)*
Answer as the number alone; pEC50 is minus log10 of concentration in mol/L.

CC(C)C[C@@H](NC(=O)[C@@H](Cc1ccc(OC(C)C)cc1)NC(=O)[C@H](N)Cc1ccccc1)C(=O)N[C@H](CCCCN)C(=O)N1CCC(N)(C(=O)N[C@@H](CCCCN)C(=O)O)CC1 [Compound 100] (H-[dF][dY](iPr)[dL][dK]-X4; N-terminus assumed) : 10.15

Asked: Let me know recorded pEC50 for CC(C)C[C@@H](NC(=O)[C@@H](Cc1ccc(I)cc1)NC(=O)[C@H](N)Cc1ccccc1)C(=O)N[C@H](CCCCN)C(=O)N1CCC(N)(C(=O)N[C@H](CCCCN)C(N)=O)CC1 , thanks.
Given back: 10.26

====

Target: human κ opioid receptor (OPRK1) (Homo sapiens, UniProt P41145)
Construct: expressed in transfected cells; host or cells: CHO-K1
Assay: Determination of activities of κ receptor agonists: inhibition of forskolin-stimulated cAMP release (HTRF) in stably transfected CHO-K1 cells
Assay type: cell-based
Details: relative to Difelikefalin = 100.0
Bridge positions count the residues as written; N and C are the ends. Square brackets hold non-standard residues; d marks the D form. Side chains are listed from the residue outwards. Peptide text beside a SMILES is read from it. I, II: the chains in the order shown. * marks the point of attachment. X3 = NCCCC[C@@H](NC(=O)[C@@H](CCCCN)NC(=O)C1(N)CCN(*)CC1)C(=O)O; X21 = NCCCC[C@H](NC(=O)[C@H](CCCCN)NC(=O)C1(N)CCN(*)CC1)C(N)=O; X12 = CCOc1ccc(C[C@@H](NC(=O)[C@H](N)Cc2ccccc2)C(=O)*)cc1; Piperidin1yl(4-NH2,4-COOH) = NC1(C(=O)O)CCN(*)CC1; Api = NC1(C(=O)O)CCNCC1; iPr = CC(C)*
Class membership depends on Relative Activity % alone; the intervals are low range (below 500%), mid range (500% to below 1000%), high range (1000% or more)

Solved entries (count: 5):
CCOc1ccc(C[C@@H](NC(=O)[C@H](N)Cc2ccccc2)C(=O)N[C@H](CC(C)C)C(=O)N[C@H](CCCCN)C(=O)N2CCC(N)(C(=O)N[C@H](CCCCN)C(=O)N[C@H](CCCCN)C(=O)O)CC2)cc1 [Compound 18] (H-[dF][dY](Et)[dL][dK]-X3; N-terminus assumed) : high range
CCOc1ccc(C[C@@H](NC(=O)[C@H](N)Cc2ccccc2)C(=O)N[C@H](CC(C)C)C(=O)N[C@H](CCCCN)C(=O)N2CCC(N)(C(=O)N[C@@H](CCCCN)C(=O)N[C@@H](CCCCN)C(N)=O)CC2)cc1 [Compound 5] (H-[dF][dY](Et)[dL][dK]-X21; N-terminus assumed) : high range
CCOc1ccc(C[C@@H](NC(=O)[C@H](N)Cc2ccccc2)C(=O)N[C@H](CC(C)C)C(=O)N[C@H](CCCCN)C(=O)N2CCC(N)(C(=O)N[C@@H](CCCCN)C(=O)N[C@@H](CCCCN)C(=O)N[C@@H](CCCCN)C(=O)N[C@@H](CCCCN)C(=O)N[C@@H](CCCCN)C(=O)N[C@@H](CCCCN)C(=O)O)CC2)cc1 [Compound 14] (H-[Api]([dK-dL-X12])KKKKKK-OH; N-terminus assumed) : mid range
CC(C)C[C@@H](NC(=O)[C@@H](Cc1ccc(N)cc1)NC(=O)[C@H](N)Cc1ccccc1)C(=O)N[C@H](CCCCN)C(=O)N1CCC(N)(C(=O)N[C@H](CCCCN)C(N)=O)CC1 : mid range
CC(C)C[C@@H](NC(=O)[C@@H](Cc1ccc(Cl)cc1)NC(=O)[C@H](N)Cc1ccccc1)C(=O)N[C@H](CCCCN)C(=O)N1CCC(N)(C(=O)N[C@@H](CCCCN)C(=O)O)CC1 : high range

Asked: Classify this compound: CC(C)C[C@@H](NC(=O)[C@@H](Cc1ccc(OC(C)C)cc1)NC(=O)[C@H](N)Cc1ccccc1)C(=O)N[C@H](CCCCN)C(=O)N1CCC(N)(C(=O)O)CC1 [Compound 98] (H-[dF][dY](iPr)[dL][dK]-{Piperidin1yl(4-NH2,4-COOH)}; N-terminus assumed)
Given back: low range

Asked: Classify this compound: CCOc1ccc(C[C@@H](NC(=O)[C@H](N)Cc2ccccc2)C(=O)N[C@H](CC(C)C)C(=O)N[C@H](CCCCN)C(=O)N2CCC(N)(C(=O)NCC(=O)NCC(=O)NCC(=O)NCC(=O)NCC(=O)N[C@H](CCCCN)C(=O)O)CC2)cc1 [Compound 66] (H-[Api]([dK-dL-X12])GGGGG[dK]-OH; N-terminus assumed)
Given back: mid range

Asked: Classify this compound: CC(C)C[C@@H](NC(=O)[C@@H](Cc1ccc(F)cc1)NC(=O)[C@H](N)Cc1ccccc1)C(=O)N[C@H](CCCCN)C(=O)N1CCC(N)(C(=O)O)CC1
Given back: low range

Asked: Classify this compound: CCOc1ccc(C[C@@H](NC(=O)[C@H](N)Cc2ccccc2)C(=O)N[C@H](CC(C)C)C(=O)N[C@H](CCCCN)C(=O)N2CCC(N)(C(=O)NCC(=O)NCC(=O)N[C@H](CCCCN)C(=O)O)CC2)cc1 [Compound 54] (I: H-[Api]GG[dK]-OH / II: H-[dF][dY](Et)[dL][dK]; amide I:1-II:C; N-terminus assumed)
Given back: high range

Measured values drawn from patent US20260274891A1 for this set.
